assay-method-text: self-splicing fitness, log relative to wild type (ln ratio); higher = more splicing; Tetrahymena group I intron in knt gene, E. coli kanamycin selection, DiMSum; sequences stand for … in CUCUCU…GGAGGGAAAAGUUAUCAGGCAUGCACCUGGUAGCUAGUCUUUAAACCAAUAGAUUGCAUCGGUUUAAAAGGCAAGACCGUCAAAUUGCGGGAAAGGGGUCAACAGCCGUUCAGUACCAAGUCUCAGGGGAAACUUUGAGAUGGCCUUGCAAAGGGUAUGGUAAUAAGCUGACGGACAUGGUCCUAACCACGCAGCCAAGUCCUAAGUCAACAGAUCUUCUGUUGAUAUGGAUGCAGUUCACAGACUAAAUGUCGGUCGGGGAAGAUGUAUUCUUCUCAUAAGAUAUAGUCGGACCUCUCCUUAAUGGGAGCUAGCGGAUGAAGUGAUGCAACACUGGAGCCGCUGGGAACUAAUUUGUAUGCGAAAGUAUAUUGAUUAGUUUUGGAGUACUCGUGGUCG;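 further: selection with 25 µg/mL kanamycin versus none on LB agar overnight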
test-settings: 37 °C
readout: self-splicing fitness (ln)
Numbers only.

Respectfully, I request self-splicing fitness (ln) for each entry included below.
1. GAUGAGCAAUAUUACGAUGG
2. ACCAAGCAAUAUUACGUAAG
3. GGCCAGCAAUAUUACGGGCG
4. UUAAAGCAAUAUUACGCAUU
5. GUCAAGCAAUAUUACGCGAA
6. AGGCAGCAAUAUUACGUAAA
7. UCCCAGCAAUAUUACGUGCC

1: -2; 2: -1.37; 3: -2.02; 4: -2.86; 5: -0.888; 6: -0.673; 7: -2.32

Respectfully, I request self-splicing fitness (ln) for each entry included below.
1. GUUUAGCAAUAUUACGGUGA
2. CCAAAGCAAUAUUACGCUGU

1. -0.461
2. -2.69

Respectfully, I request self-splicing fitness (ln) for each entry included below.
1. AUGGAGCAAUAUUACGAAAG
2. GCUCAGCAAUAUUACGGGCU
3. GGCUAGCAAUAUUACGGGGU

1. -2.11
2. -2.63
3. -1.29
